- System: MDA-MB-468 breast
- assayName: NCI-60 one-dose screen, 48 h
- testParameters: 10 µM unless noted
About 83,000 compounds went through this panel and 20% of them were active in at least one assay; those are over-represented in the sample as a whole. Calls of active or inactive are those of the source. How the source made its calls: active means growth percent below 10; inactive means the rest.
The reply should be one of these categories: y (active), n (inactive)

Asked: Call for entry COc1ccc(/C(C)=C(\c2ccc(Cl)cc2)c2ccc(OCCN(C)C)cc2)cc1F :
Given back: n

Asked: Another compound to look at: CC(=O)O[C@H]1CC[C@@]2(C)C(=CC[C@@H]3[C@@H]2CC[C@]2(C)C(=O)N(O)C(=O)C[C@@H]32)C1
Given back: n

Asked: Another compound to look at: O=C(CCc1nnc(Cn2cncn2)o1)c1nc2ccccc2[nH]1
Given back: n

Asked: Another compound to look at: COC(=O)c1ccc(-n2cc(CCCOS(=O)(=O)c3ccc(F)cc3)nn2)cc1
Given back: n

Asked: Another compound to look at: N=C1S/C(=C/c2ccc(-c3ccc4c(c3)C(=O)NC4=O)o2)C(=O)N1c1ccc(Br)cc1
Given back: n

Asked: Another compound to look at: CN1C(=O)NC(Cc2c[nH]c3c(Cl)cccc23)C1=O (configuration not stated)
Given back: n

Asked: Another compound to look at: COc1ccc(/C=C(\C#N)c2cc3ccccc3[nH]2)cc1
Given back: n

Asked: Another compound to look at: COc1ccc(Br)cc1NC(=O)Nc1cccc2c1ccn2Cc1ccnc(N)c1
Given back: y

Asked: Another compound to look at: OCC1OC(n2cnc3c(NCc4ccco4)ncnc32)C(O)C1O (configuration not stated)
Given back: y

Asked: Another compound to look at: O=C(c1cnn2c1NC(c1ccc(F)cc1)C2)N1CCCCC1 (configuration not stated)
Given back: n

Asked: Another compound to look at: Nc1ncnc2[nH]c(=O)[nH]c12
Given back: n

Asked: Another compound to look at: CCSc1nc(NC)c2cc(-c3ccc(C(F)(F)F)cc3)ccc2n1
Given back: n

Asked: Another compound to look at: O=C(N/N=C/C=C\c1ccccc1)C(=O)N/N=C/C=C/c1ccccc1
Given back: n

Asked: Another compound to look at: Cc1ccc(/C=C(\C#N)c2cc3ccccc3[nH]2)cc1
Given back: n

Asked: Another compound to look at: CCCCCCCCOC(=O)c1c(C)[nH]c(/C=C2\N=C(c3ccc[nH]3)C=C2OC)c1C
Given back: y

Asked: Another compound to look at: CC(=O)c1c[nH]c2ccccc12
Given back: n

Asked: Another compound to look at: C[C@]12CC[C@@H]3c4ccc(O)c(N)c4CC[C@H]3[C@@H]1CC[C@@H]2O
Given back: n

Asked: Another compound to look at: COc1cc(NS(=O)(=O)c2ccc(N)cc2)ncn1
Given back: n

Asked: Another compound to look at: COc1ccc(Cn2cc3c(c2-c2cc(OC)c(OC)c(OC)c2)CCCc2cnoc2-3)cc1
Given back: n

Asked: Another compound to look at: CN(c1ccc(Br)cc1)S(=O)(=O)c1ccc(-c2cnc(C3CC3)o2)cc1
Given back: n

Asked: Another compound to look at: Cc1nc2scc(-c3ccccc3)n2c(=O)c1CCO
Given back: n

Asked: Another compound to look at: C=C1CCC2C3(C)COC(C)(C)OC3CCC2(C)C1C/C=C1/C(=O)OCC1Oc1ccccc1OC (configuration not stated)
Given back: n

Asked: Another compound to look at: O=C1C=C(Nc2cccc(Br)c2)c2ccccc2C1=O
Given back: n

Asked: Another compound to look at: COc1ccc(-c2nnc(SCC(=O)Nc3ccc(C(=O)/C=C/c4ccccc4)cc3)o2)cc1OC
Given back: n

Asked: Another compound to look at: O=C(CNC(=O)c1cccc2ccccc12)Nc1ccccc1Oc1cccc(O)c1
Given back: y

Asked: Another compound to look at: COc1ccc(/C=C/c2n[nH]c3ccc(N4CCOC4=O)cc23)cc1
Given back: y

Asked: Another compound to look at: [O-][N+](=Nc1cccc(Cl)c1)c1cccc(Cl)c1
Given back: y
